Test system: clinical strains of MRSA
Experiment: Kirby Bauer disc diffusion susceptibility profile
Format: cell-based, Staphylococcus aureus
Details: MRSA strain 7172; 35° C., 24 hours, average n=3
METRIC: Zone of clearance (mm)
One number for each entry, in mm.

MOLECULE	Zone of clearance [mm]
O=C(N[C@H](CO)[C@H](O)c1ccc([N+](=O)[O-])cc1)C(Cl)Cl [Chloramphenicol, chloramphenicol]	19.5
NC[C@H]1O[C@H](O[C@H]2[C@H](O)[C@@H](O[C@H]3O[C@H](CO)[C@@H](O)[C@H](N)[C@H]3O)[C@H](N)C[C@@H]2N)[C@H](O)[C@@H](O)[C@@H]1O [Kanamycin, kanamycin]	20.5
CC[C@H]1OC(=O)[C@H](C)[C@@H](O[C@H]2C[C@@](C)(OC)[C@@H](O)[C@H](C)O2)[C@H](C)[C@@H](O[C@@H]2O[C@H](C)C[C@H](N(C)C)[C@H]2O)[C@](C)(O)C[C@@H](C)C(=O)[C@H](C)[C@@H](O)[C@]1(C)O [Erythromycin, erythromycin]	17.5
[H]/N=C(/N)N[C@H]1[C@H](O)[C@@H](O)[C@H](O[C@@H]2O[C@@H](C)[C@](O)(C=O)[C@H]2O[C@@H]2O[C@@H](CO)[C@H](O)[C@@H](O)[C@@H]2NC)[C@@H](N/C(N)=N\[H])[C@@H]1O [Streptomycin, streptomycin]	18.5
CC1(C)S[C@@H]2[C@H](NC(=O)[C@H](N)c3ccccc3)C(=O)N2[C@H]1C(=O)O [Ampicillin, ampicillin]	14.5

Turning to the following molecule.
What value of measured Zone of clearance is listed for C[C@H]1c2cccc(O)c2C(=O)C2=C(O)[C@]3(O)C(=O)C(C(N)=O)=C(O)[C@@H](N(C)C)[C@@H]3[C@@H](O)[C@@H]21 [Doxycycline, doxycycline] ?
19.0

---

Assignment: determine reported Σ FIC for the given compounds.
Test system: Klebsiella pneumoniae
Test: Checkerboard synergy (FICI) of antibiotics with SP-BIM
Type: cell-based
Details: antibiotic + SP-BIM 9

MOL SMILES	Σ FIC
CC1=C(C(=O)O)N2C(=O)[C@@H](NC(=O)[C@H](N)c3ccccc3)[C@H]2SC1	<0.5
COc1cc(Cc2cnc(N)nc2N)cc(OC)c1OC	<1.5
C[C@H]1c2cccc(O)c2C(=O)C2=C(O)[C@]3(O)C(=O)C(C(N)=O)=C(O)[C@@H](N(C)C)[C@@H]3[C@@H](O)[C@@H]21	<0.8
C[C@H]1[C@H](NC(=O)/C(=N\OC(C)(C)C(=O)O)c2csc(N)n2)C(=O)N1S(=O)(=O)O	<0.1
[H]/N=C(/N)N[C@H]1[C@H](O)[C@@H](O)[C@H](O[C@@H]2O[C@@H](C)[C@](O)(C=O)[C@H]2O[C@@H]2O[C@@H](CO)[C@H](O)[C@@H](O)[C@@H]2NC)[C@@H](N/C(N)=N\[H])[C@@H]1O	<0.6
O=C(O)c1cn(C2CC2)c2cc(N3CCNCC3)c(F)cc2c1=O	<0.5
CC1(C)S[C@@H]2[C@H](NC(=O)[C@H](N)c3ccccc3)C(=O)N2[C@H]1C(=O)O	<1.0

Which Σ FIC is reported with Klebsiella pneumoniae for this entry: CC[C@H]1OC(=O)[C@H](C)[C@@H](O[C@H]2C[C@@](C)(OC)[C@@H](O)[C@H](C)O2)[C@H](C)[C@@H](O[C@@H]2O[C@H](C)C[C@H](N(C)C)[C@H]2O)[C@](C)(O)C[C@@H](C)C(=O)[C@H](C)[C@@H](O)[C@]1(C)O ?
<0.8

---

Tested on: clinical strains of MRSA
Experiment: Kirby Bauer disc diffusion susceptibility profile
Format: cell-based, Staphylococcus aureus
Details: MRSA strain 7153; zones vs EUCAST breakpoints (Table 30)
METRIC: Interpretive standard (resistant/susceptible)

MOL SMILES	MEASURED RESULT
C[C@H]1c2cccc(O)c2C(=O)C2=C(O)[C@]3(O)C(=O)C(C(N)=O)=C(O)[C@@H](N(C)C)[C@@H]3[C@@H](O)[C@@H]21	R
NC[C@H]1O[C@H](O[C@H]2[C@H](O)[C@@H](O[C@H]3O[C@H](CO)[C@@H](O)[C@H](N)[C@H]3O)[C@H](N)C[C@@H]2N)[C@H](O)[C@@H](O)[C@@H]1O	S
O=C(N[C@H](CO)[C@H](O)c1ccc([N+](=O)[O-])cc1)C(Cl)Cl	S
CC1(C)S[C@@H]2[C@H](NC(=O)[C@H](N)c3ccccc3)C(=O)N2[C@H]1C(=O)O	R

---

Assignment: determine reported MIC of antibiotic, No Compound for the given compounds.
Tested on: Bacillus cereus
Experiment: Adjuvant broth microdilution (antibiotic MIC with SP-BIM at 50 μg/mL)
Format: cell-based
Conditions: antibiotic alone, Table 9
Give bare numbers, in mg/L.

MOL SMILES	ASSAY SYSTEM	MIC of antibiotic, No Compound / mg/L
O=C(N[C@H](CO)[C@H](O)c1ccc([N+](=O)[O-])cc1)C(Cl)Cl	Bacillus cereus	4

Turning to the following compound.
What value of measured MIC of antibiotic, No Compound is listed for CC[C@H]1OC(=O)[C@H](C)[C@@H](O[C@H]2C[C@@](C)(OC)[C@@H](O)[C@H](C)O2)[C@H](C)[C@@H](O[C@@H]2O[C@H](C)C[C@H](N(C)C)[C@H]2O)[C@](C)(O)C[C@@H](C)C(=O)[C@H](C)[C@@H](O)[C@]1(C)O ?
4

---

Tested on: clinical strains of MRSA
Test: Kirby Bauer disc diffusion susceptibility profile
Assay type: cell-based, Staphylococcus aureus
Conditions: MRSA strain 7153; zones vs EUCAST breakpoints (Table 30)
METRIC: Interpretive standard (resistant/susceptible)

MOL SMILES	ASSAY SYSTEM	MEASURED RESULT
CC[C@H]1OC(=O)[C@H](C)[C@@H](O[C@H]2C[C@@](C)(OC)[C@@H](O)[C@H](C)O2)[C@H](C)[C@@H](O[C@@H]2O[C@H](C)C[C@H](N(C)C)[C@H]2O)[C@](C)(O)C[C@@H](C)C(=O)[C@H](C)[C@@H](O)[C@]1(C)O	clinical strains of MRSA	S
[H]/N=C(/N)N[C@H]1[C@H](O)[C@@H](O)[C@H](O[C@@H]2O[C@@H](C)[C@](O)(C=O)[C@H]2O[C@@H]2O[C@@H](CO)[C@H](O)[C@@H](O)[C@@H]2NC)[C@@H](N/C(N)=N\[H])[C@@H]1O	clinical strains of MRSA	I

---

System: Enterococcus faecium
Assay: Checkerboard synergy (FICI) of antibiotics with SP-BIM
Assay type: cell-based
Details: Enterococcus faecium; SP-BIM 13 in combination with the labelled antibiotic
Assignment: determine reported FIC of SP-BIM 13 for the given molecules.
One number for each entry.

Recorded FIC of SP-BIM 13, per entry:
MOLECULE	FIC of SP-BIM 13
CC1(C)S[C@@H]2[C@H](NC(=O)[C@H](N)c3ccccc3)C(=O)N2[C@H]1C(=O)O [Ampicillin, ampicillin]	0.5
C[C@H]1c2cccc(O)c2C(=O)C2=C(O)[C@]3(O)C(=O)C(C(N)=O)=C(O)[C@@H](N(C)C)[C@@H]3[C@@H](O)[C@@H]21 [Doxycycline, doxycycline]	0.5
[H]/N=C(/N)N[C@H]1[C@H](O)[C@@H](O)[C@H](O[C@@H]2O[C@@H](C)[C@](O)(C=O)[C@H]2O[C@@H]2O[C@@H](CO)[C@H](O)[C@@H](O)[C@@H]2NC)[C@@H](N/C(N)=N\[H])[C@@H]1O [Streptomycin, streptomycin]	0.5
O=C(O)c1cn(C2CC2)c2cc(N3CCNCC3)c(F)cc2c1=O [Ciprofloxacin, ciprofloxacin]	0.5

Would you mind listing FIC of SP-BIM 13 for each of the following molecules?
1. CC1=C(C(=O)O)N2C(=O)[C@@H](NC(=O)[C@H](N)c3ccccc3)[C@H]2SC1 [Cephalexin, cefalexin]
2. C[C@H]1[C@H](NC(=O)/C(=N\OC(C)(C)C(=O)O)c2csc(N)n2)C(=O)N1S(=O)(=O)O [Aztreonam, aztreonam]
3. COc1cc(Cc2cnc(N)nc2N)cc(OC)c1OC [Trimethoprim, trimethoprim]

[0.5, 1.0, 1.0]

---

Test system: Streptococcus pneumoniae
Assay: Adjuvant broth microdilution (antibiotic MIC with SP-BIM at 50 μg/mL)
Format: cell-based
Settings: Streptococcus pneumoniae; Streptococcus pneumonia; SP-BIM at 50 μg mL^−1; read-out: MIC of Vancomvcin with SP-BIM
METRIC: MIC

MOLECULE	MEASURED RESULT
c1cc(C(c2c[nH]c3ccccc23)c2c[nH]c3ccccc23)cc(C(c2c[nH]c3ccccc23)c2c[nH]c3ccccc23)c1 [SP-BIM 7, 1,3-bis[bis(indoly-3-yl)methyl]benzene]	1 µg/mL
Oc1cc(Br)ccc1[C+](c1c[nH]c2ccccc12)c1c[nH]c2ccccc12	1 µg/mL
c1ccc2c(c1)cc(C(c1c[nH]c3ccccc13)c1c[nH]c3ccccc13)c1ccccc12	1 µg/mL
COc1ccccc1C(c1c[nH]c2ccccc12)c1c[nH]c2ccccc12	1 µg/mL
Nc1ccc(C(c2c[nH]c3ccccc23)c2c[nH]c3ccccc23)cc1	0.5 µg/mL

Which MIC is reported with Streptococcus pneumoniae for this entry: O=Cc1cccc(C(c2c[nH]c3ccccc23)c2c[nH]c3ccccc23)c1 ?
0.5 µg/mL
